Tested on: myeloid leukemia KG1 cell line
test-summary: Cell proliferation of KG1, flow cytometric cell count
Format: cell-based, human
setup-conditions: 96 hours; read-out: KG1 IC50
readout: IC50 (µM)
Give bare numbers, in µM.

Q. Report measured IC50; entry is CC(C)c1n[nH]c2c(N[C@@H](CO)c3ccccc3)nc(NC[C@H](O)CO)nc12 [Compound 158]
A. 12

---

Tested on: Cytokinin-dependent tobacco callus Nicotiana tabacum L. cv. Wisconsins 38
test-summary: Tobacco callus bioassay for cytotoxicity (herbicidal activity)
Assay type: cell-based
setup-conditions: read-out: 10^−5 M BAP IC50; 10^−5 M 6-benzylaminopurine, four weeks
pIC50: −log10 of the molar value.
readout: pIC50

Q. Look up Cytokinin-dependent tobacco callus Nicotiana tabacum L. cv. Wisconsins 38 data: pIC50 of CC[C@H](CO)Nc1nc(Nc2cccc(Cl)c2)c2[nH]nc(C(C)C)c2n1 , then report it.
A. < 4.30
